The reported measurements were obtained from the RNAGym collection of RNA variant scans (doi:10.1073/pnas.2313332121).

B1: TPR 5TU (parent)
chain: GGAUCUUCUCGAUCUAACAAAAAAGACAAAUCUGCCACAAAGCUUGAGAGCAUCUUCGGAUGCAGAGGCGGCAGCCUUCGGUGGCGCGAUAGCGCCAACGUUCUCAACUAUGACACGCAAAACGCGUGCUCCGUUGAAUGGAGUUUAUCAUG

variants of: B1; test: polymerase ribozyme fitness, log enrichment relative to wild type (log ratio); higher = more active; in vitro selection for triplet polymerase activity
This sample holds only a part of the variants without activity.
Entries annotated with measured polymerase ribozyme fitness (log ratio)

Worked cases, polymerase ribozyme fitness (log ratio) given:
> print(dat)
                              mutation.list                                   metric  result
1                       U4A G83C G94U U148G  polymerase ribozyme fitness (log ratio)  ≤ -4.2
2                            A23U U77C C87U  polymerase ribozyme fitness (log ratio)  ≤ -4.2
3               U6C U7G A49G A66C G74A C96G  polymerase ribozyme fitness (log ratio)  ≤ -4.2
4                      A24C C95A C96G U144C  polymerase ribozyme fitness (log ratio)  ≤ -4.2
5  C10U U13G C35U G50U G59C A60U C85A G94C G141A  polymerase ribozyme fitness (log ratio)  ≤ -4.2

q: Complete the entry with polymerase ribozyme fitness (log ratio) for U7A C14G C32U A106G U148C
a: ≤ -4.2

q: Read the entry C10A A19C A29U C36U C57U G58A A66C G67C U82G G84U U109A and write its reported polymerase ribozyme fitness (log ratio).
a: ≤ -4.2

q: Quick one: give measured polymerase ribozyme fitness (log ratio) for C38U C85G C93U G117U G128C
a: ≤ -4.2

q: Give me measured polymerase ribozyme fitness (log ratio), please, for this variant: U78G C85G A142G U146C
a: ≤ -4.2

q: Could you please provide reported polymerase ribozyme fitness (log ratio) for G50A G58C C99A ? Thanks!
a: ≤ -4.2
